Sourced from the supplement of paper PMC9732359

# protein stability index listing for each entry below
Assay: protein stability index of a GFP-peptide fusion (yeast GPS) (PSI 1-4); higher = more stable; sorted into four equal gates, so the index is relative within each strain
Conditions: san1∆

[
  {
    "seq": "ETGNFSWASEGISKKTR [RPS8A]",
    "protein stability index": 3.21
  },
  {
    "seq": "MGKRVDFSARTVISGDP [RPO21]",
    "protein stability index": 3.08
  },
  {
    "seq": "LEEVSLKWIDTASKFGK [RPL3]",
    "protein stability index": 1.8
  },
  {
    "seq": "EQTEGEPKKKRGFLGLF [SRP68]",
    "protein stability index": 2.9
  },
  {
    "seq": "PQMFLNQQAQARQQVAQ [GAL11]",
    "protein stability index": 1.9
  },
  {
    "seq": "SLQEDVSFDFNGVPGQA [MED8]",
    "protein stability index": 2.64
  },
  {
    "seq": "ELRRFESSINTHPHAAD [SKI6]",
    "protein stability index": 2.56
  },
  {
    "seq": "STTFADCPVVPADPDIL [RPC40]",
    "protein stability index": 2.41
  },
  {
    "seq": "RMKSITSTSQKIPSASI [SNF5]",
    "protein stability index": 3.17
  },
  {
    "seq": "DIFITPTPVVTISEKEQ [SSN2]",
    "protein stability index": 1.48
  },
  {
    "seq": "NVQLRDVIATEPQGAVT [SMD3]",
    "protein stability index": 2.39
  },
  {
    "seq": "ESMLHLSIWIKNYPEYF [IRR1]",
    "protein stability index": 2.25
  },
  {
    "seq": "ERGGKFHESGSQYSTMV [RGR1]",
    "protein stability index": 3.44
  },
  {
    "seq": "MDWLDNWGRKEHDLLRQ [ITC1]",
    "protein stability index": 3.48
  },
  {
    "seq": "TVVISQKKVPDKLLDPT [SCL1]",
    "protein stability index": 3.23
  },
  {
    "seq": "KVPDISSDGQLKKFRES [BRR2]",
    "protein stability index": 3.39
  },
  {
    "seq": "IDMDKLNTVLIADLDTE [RRP43]",
    "protein stability index": 2.83
  },
  {
    "seq": "QPKGVILYGPPGTGKTL [RPT6]",
    "protein stability index": 3.3
  },
  {
    "seq": "ASSNFPFLNETKPGVYY [RPC82]",
    "protein stability index": 2.73
  },
  {
    "seq": "SIVLDSEHFDVNDNPDI [DIS3]",
    "protein stability index": 2.74
  },
  {
    "seq": "YVDTATAKRKSRKRKPK [IRR1]",
    "protein stability index": 3.14
  },
  {
    "seq": "QKQLPQKTRVKLLFDHD [ESC2]",
    "protein stability index": 3.03
  },
  {
    "seq": "VHMYHKSLALLGYNFDG [SNF5]",
    "protein stability index": 2.02
  },
  {
    "seq": "FTDENTIVLSLNVKCTR [RPC40]",
    "protein stability index": 2.96
  },
  {
    "seq": "GAKQTQGGAMNKKSEQA [SRP72]",
    "protein stability index": 3.26
  },
  {
    "seq": "PKIDEDDTWYNLTEFVQ [AAR2]",
    "protein stability index": 3.07
  },
  {
    "seq": "KFPPPTPLLENISISTS [BRR2]",
    "protein stability index": 1.63
  },
  {
    "seq": "HVKQCQETCDKLRARLV [SMC2]",
    "protein stability index": 2.34
  },
  {
    "seq": "IDDNYIVVVIEIITSLS [SRB8]",
    "protein stability index": 2.16
  },
  {
    "seq": "EEQKSSDTSKPAFTFGA [YJL041W/NSP1]",
    "protein stability index": 2.89
  },
  {
    "seq": "ATIIGIISTAIADSTHV [ECM29]",
    "protein stability index": 1.95
  }
]
